Cited source for all entries: the supplement of paper PMC12855868

B1: library; numbered along this chain (parent)
chain: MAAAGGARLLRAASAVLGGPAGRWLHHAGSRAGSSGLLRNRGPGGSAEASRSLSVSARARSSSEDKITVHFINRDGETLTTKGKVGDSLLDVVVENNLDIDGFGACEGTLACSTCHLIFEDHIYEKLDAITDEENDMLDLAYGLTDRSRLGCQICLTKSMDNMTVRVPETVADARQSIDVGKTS

# Variants of: B1
# METHOD: scaled log2 fold change in cell abundance, elesclomol vs control (0 = silent mean, 1 = nonsense mean) (scaled log2 ratio); higher = higher viability under elesclomol (loss of FDX1 cuproptosis function);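 note: variant abundance is its share of total variant reads in each endpoint sample, from next-generation sequencing of the integrated ORF PCR-amplified out of genomic DNA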
# CONDITION CONTEXT: with ABC1 FDX1 KO; elesclomol 5 nM; glucose 10 mM; 14 days
Label Criterion not met if scaled log2 fold change falls below 0.1; label Criterion met in every other case.

    variant           category
 0    M160T      Criterion met
 1    Y124S      Criterion met
 2    L138Q  Criterion not met
 3    T131W      Criterion met
 4    D173C  Criterion not met
 5    D161T      Criterion met
 6     S63V      Criterion met
 7    A174F  Criterion not met
 8     V69W      Criterion met
 9     S34H      Criterion met
10    A141D      Criterion met
11     T78E      Criterion met
12     A15G  Criterion not met
13      A3K      Criterion met
14    I130T  Criterion not met
15     D91L      Criterion met
16     H26Y      Criterion met
17     F71V      Criterion met
18    V167R      Criterion met
19    D132L      Criterion met
20     A21D      Criterion met
21    K126F  Criterion not met
22    C155K  Criterion not met
23    I123C      Criterion met
24      R8W      Criterion met
25    Y124V  Criterion not met
26     A59Q      Criterion met
27     H27N  Criterion not met
28     E95S      Criterion met
29     A32C  Criterion not met
30    T145R  Criterion not met
31    V167H      Criterion met
32    L150D      Criterion met
33    R166L  Criterion not met
34    E125P  Criterion not met
35     S52A      Criterion met
36    D121Q      Criterion met
37    Q153F      Criterion met
38     S63F  Criterion not met
39    D101M      Criterion met
40     A57N  Criterion not met
41    F119H      Criterion met
42    N135E  Criterion not met
43    T164C      Criterion met
44     L98S      Criterion met
45    M163G      Criterion met
